Test system: HBV (encapsidated HBV DNA, HepG2.2.15 cells)
protocolSummary: HBV replication inhibition assay, BDNA assay in HepG2.2.15 cells
Assay type: cell-based
details: Hepatitis B virus, HepG2.2.15, Activity in BDNA-assay
pEC50: −log10 of the molar value.
outcomeMeasure: pEC50

See these solved cases before continuing.
compound	pEC50
CN1CC(C(O)CC(F)F)Cn2nc3c(c2C1=O)CN(C(=O)Nc1ccc(F)c(Cl)c1)CC3 (stereo not drawn) [Compound 116]	7.00 to 9.00
CN1CC(C)(CO)Cn2nc3c(c2C1=O)CN(C(=O)Nc1ccc(F)c(Cl)c1)CC3 (stereo not drawn) [Compound 053]	7.00 to 9.00
C[C@@H]1Cc2nn3c(c2CN1C(=O)Nc1ccc(F)c(C#N)c1)C(=O)N(C)CC(CO)C3 (single isomer, unassigned) [Compound 087_D1]	7.00 to 9.00

For every listed record, write down its pEC50.
1. CN1CC(N(C)C)Cn2nc3c(c2C1=O)CN(C(=O)Nc1ccc(F)c(Cl)c1)CC3 (stereo not drawn) [Compound 020]
2. C[C@@H]1Cc2nn3c(c2CN1C(=O)Nc1ccc(F)c(C#N)c1)C(=O)N(C)CC(C)(C)C3 [Compound 139]
3. CN1CC(O)(CO)Cn2nc3c(c2C1=O)CN(C(=O)Nc1ccc(F)c(Cl)c1)CC3 (stereo not drawn) [Compound 003]
4. CN1CC(C(O)C2CC2)Cn2nc3c(c2C1=O)CN(C(=O)Nc1ccc(F)c(Cl)c1)CC3 (stereo not drawn) [Compound 036]

Out:
7.00 to 9.00
7.00 to 9.00
6.00 to 6.30
7.00 to 9.00

For every listed record, write down its pEC50.
1. CN1CC(N)Cn2nc3c(c2C1=O)CN(C(=O)Nc1ccc(F)c(Cl)c1)CC3 (stereo not drawn) [Compound 019]
2. CN1CC(CN2CCCC2)Cn2nc3c(c2C1=O)CN(C(=O)Nc1ccc(F)c(Cl)c1)CC3 (stereo not drawn) [Compound 069]
3. CN1C(=O)c2c3c(nn2CCC1(C)CO)CCN(C(=O)Nc1ccc(F)c(Cl)c1)C3 (stereo not drawn) [Compound 061]
4. C[C@@H]1Cc2nn3c(c2CN1C(=O)Nc1ccc(F)c(C#N)c1)C(=O)N(CC(F)F)CCC3 [Compound 076]
5. CN(C)C(=O)C1CCn2nc3c(c2C(=O)N1C)CN(C(=O)Nc1ccc(F)c(Cl)c1)CC3 (stereo not drawn) [Compound 059]
6. O=C(Nc1ccc(F)c(Cl)c1)N1CCc2nn3c(c2C1)C(=O)N(CC(F)F)CCC3 [Compound 038]
7. CN1CC2(CC(O)C2)Cn2nc3c(c2C1=O)CN(C(=O)Nc1ccc(F)c(Cl)c1)CC3 (stereo not drawn) [Compound 132]

Out:
1. 6.30 to 7.00
2. 7.00 to 9.00
3. 7.00 to 9.00
4. 7.00 to 9.00
5. 6.30 to 7.00
6. 7.00 to 9.00
7. 7.00 to 9.00

In: What does the data say about its pEC50? Entry: CN1CC(N2CC(F)(F)C2)Cn2nc3c(c2C1=O)CN(C(=O)Nc1ccc(F)c(Cl)c1)CC3 (stereo not drawn) [Compound 022]
Out: 6.30 to 7.00

Where do these numbers come from? They come from patent US10975077B2.
